- Test system: MDA-MB-468 breast
Outcome codes: Yes (active), No (inactive)

Molecule	Answer label
COc1cncc(-c2ccc3ncnc(N4CCc5ccc(Cl)cc54)c3c2)c1	Yes
CCc1nn2c(C)cc(C)nc2c1Cc1ccc(/C=C/CN2CCN(CCOCCOCCN3CCN(C/C=C/c4ccc(Cc5c(CC)nn6c(C)cc(C)nc56)cc4)CC3)CC2)cc1	No
C=C1CC[C@@H]2C(C)(C)[C@@H](O)CC[C@@]2(C)[C@@H]1COc1ccc2ccc(=O)oc2c1	No
COc1cc2c(cc1OC)C(CCc1ccc(Cl)cc1)N(C)CC2 (centres undefined)	No
COc1ccc(CN2c3ccccc3Sc3ccccc32)cc1F	Yes
CCN(CC)CCOc1ccc(C(=C(C)c2ccccc2)c2ccc(OCCN(CC)CC)cc2)cc1	No
Cc1ccc(/C=C(\C#N)n2nnc3cc(Cl)c(Cl)cc32)cc1	No
O=C1NC(=NCc2cccs2)SC1Cc1ccc2ncccc2c1 (centres undefined)	No
CCCc1cc(=O)oc2c(C(=O)CC(C)C)c(O)c(CC=C(C)C)c(O)c12	No

----------
Measured log10(TGI), listed per entry for reference.
- Tested on: MDA-MB-468 breast
- Assay protocol: NCI tumour cell line growth inhibition, 48 h
Endpoint: log10(TGI) (log10 of the value in µM)

Compound	log10(TGI)
CSc1ccc2c(c1)c(CCN)c(C)n2Cc1ccc(Cl)c(Cl)c1	0.54
COc1ccc(CN2c3ccccc3Sc3ccccc32)cc1F	1.73
COC(=O)[C@]12CC[C@@H](C)[C@H](C)[C@@H]1C1=CC[C@@H]3[C@@]4(C)C[C@@H](OC(=O)c5ccco5)[C@H](O)[C@@](C)(CO)[C@@H]4[C@H](O)C[C@@]3(C)[C@]1(C)CC2	0.82
CCCCCCN(CCCCCC)CCCNc1nccc2ccccc12	0.46
CC(C)=CC/C=C(/C)[C@H]1CC[C@]2(C)[C@@H]1CC[C@@H]1[C@@]3(C)CCC(=O)NC(C)(C)[C@@H]3CC[C@]12C	1.53
Nc1nc(N)c2cc(CNc3ccc(Cl)c(Cl)c3)ccc2n1	0.34
CCNC(=O)Oc1ccc(/C(=C(/C)c2ccccc2)c2ccc(OCCN3CCCCCC3)cc2)cc1	0.75
COc1cc2c(cc1OC)C(CCc1ccc(Cl)cc1)N(C)CC2 (stereo not drawn)	1.58
O=C1Cc2cc(CCn3ccnc3)c(Cl)cc2N1	1.05
CCOc1ccc(Cc2nccc3cc(OCC)c(OCC)cc23)cc1OCC	1.26
O=C1C2=C(C(=O)c3c(O)ccc(O)c31)N(c1ccc(N3CCOCC3)nc1)Cc1ccccc1O2	-0.29

Values compiled from PubChem BioAssay (NCI).
